Ref: paper PMC9643456

This listing pairs molecules with measured Minimum inhibitory concentrations, MDR A. baumannii.
tested on: MDR A. baumannii; experiment: microbe, parasite or virus in culture; settings: CLSI broth microdilution; CAMHB with 50 mg/L Ca2+, 10 mg/L Mg2+; 5 × 10^5 CFU/ml; 18 h 37 °C; triplicate; strain ATCC BAA-1605
Square brackets hold non-standard residues; d marks the D form. Peptide text beside a SMILES is read from it.
API: value field is a number in µM; no unit string.

Consider the worked cases shown below.
>  <molecule>
CC[C@@H](C)[C@@H](NC(=O)[C@@H](Cc1c[nH]c2ccccc12)NC(=O)[C@@H](CC(C)C)NC(=O)[C@@H](CC(C)C)NC(=O)[C@H](N)Cc1c[nH]c2ccccc12)C(=O)NCC(=O)N[C@H](CC(C)C)C(=O)N[C@H](CCCNC(=N)N)C(=O)N[C@H](CCCCN)C(=O)N[C@H](CCCCN)C(N)=O [WCopW8] (H-[dW][dL][dL][dW][dI]G[dL][dR][dK][dK]-NH2)

>  <unit-label>
µM

>  <numeric-result>
5

$$$$
>  <molecule>
CC(C)[C@@H](NC(=O)[C@H](N)Cc1c[nH]c2ccccc12)C(=O)N[C@@H](C(=O)N[C@@H](C(=O)N[C@@H](C(=O)N[C@H](Cc1c[nH]c2ccccc12)C(=O)N[C@H](CCCNC(=N)N)C(=O)N[C@H](CCCNC(=N)N)C(=O)N[C@H](CCCNC(=N)N)C(N)=O)C(C)C)C(C)C)C(C)C [WCopW44] (H-[dW][dV][dV][dV][dV][dW][dR][dR][dR]-NH2)

>  <unit-label>
µM

>  <numeric-result>
2.5

$$$$

Input line: For CC[C@@H](C)[C@@H](NC(=O)[C@@H](Cc1c[nH]c2ccccc12)NC(=O)[C@H](NC(=O)[C@@H](CC(C)C)NC(=O)[C@H](N)Cc1c[nH]c2ccccc12)C(C)C)C(=O)NCC(=O)N[C@H](CC(C)C)C(=O)N[C@H](CCCNC(=N)N)C(=O)N[C@H](CCCCN)C(=O)N[C@H](CCCCN)C(=O)N[C@H](CCCNC(=N)N)C(N)=O [WCopWV] (H-[dW][dL][dV][dW][dI]G[dL][dR][dK][dK][dR]-NH2) , what is its reported Minimum inhibitory concentrations, MDR A. baumannii?
Output line: 1.25

Input line: Entry to check: CC[C@@H](C)[C@@H](NC(=O)[C@@H](Cc1c[nH]c2ccccc12)NC(=O)[C@H](NC(=O)[C@@H](CC(C)C)NC(=O)[C@@H](Cc1c[nH]c2ccccc12)NC(=O)[C@H](N)CCCCN)C(C)C)C(=O)N[C@H](Cc1c[nH]c2ccccc12)C(=O)N[C@H](CCCNC(=N)N)C(=O)N[C@H](CCCNC(=N)N)C(=O)N[C@H](CCCNC(=N)N)C(N)=O [WCopW35] (H-[dK][dW][dL][dV][dW][dI][dW][dR][dR][dR]-NH2)
Output line: 0.63
